- System: Escherichia coli
- ASSAY_NAME: Compound was evaluated for its antibacterial activity against Escherichia coli BAS849
- Format: functional
ASSAY_READOUT: MIC (µg/mL)
Give bare numbers, in µg/mL.

Would you please look over these solved cases?
CC(=O)N[C@@H]1[C@H](O[C@H]2[C@@H](O)[C@H](NC(C)=O)[C@H](OC3[C@@H](OP(=O)(O)OC[C@@H](OCCC(C)CCCCC(C)(C)CCC(C)CCC(C)CCCC(C)C)C(=O)O)O[C@@H](C(N)=O)[C@@](C)(O)[C@@H]3OC(N)=O)O[C@H]2CO[C@@H]2O[C@@H](CO)[C@@H](O)[C@H](O)[C@@H]2O)O[C@@H](C)[C@@H](O[C@@H]2O[C@@H](C(=O)NC3=C(O)CCC3=O)[C@H](O)[C@H](O)[C@@H]2O)[C@@H]1O (stereo partly drawn) = 0.31
CCCCCCCCCCCCO[C@H](COP(=O)(O)OC1OC(C(N)=O)C(O)C(NC(=O)Nc2ccc(Cl)c(C(F)(F)F)c2)C1OC1OC(CO)C(O)C(O)C1NC(=O)c1cccc(C(F)(F)F)c1)C(=O)O (stereo partly drawn) = 12.5

Now take the following compound into account.
Give MIC (Escherichia coli) of the following compound: CN[C@H](CC(C)C)C(=O)N[C@H]1C(=O)N[C@@H](CC(N)=O)C(=O)N[C@H]2C(=O)N[C@H]3C(=O)N[C@H](C(=O)N[C@H](C(=O)O)c4cc(O)cc(O)c4-c4cc3ccc4O)[C@H](O)c3ccc(c(Cl)c3)Oc3cc2cc(c3O[C@@H]2O[C@H](CO)[C@@H](O)[C@H](O)[C@H]2O[C@H]2C[C@](C)(N)[C@H](O)[C@H](C)O2)Oc2ccc(cc2Cl)[C@H]1O [VANCOMYCIN]
0.78

* * *

Task for the reader: assign each of the following molecules its reported MIC.
- System: Staphylococcus aureus
- ASSAY_NAME: Compound was evaluated for its antibacterial activity against Staphylococcus aureus ATCC 29213
- Assay type: functional
One number for each entry, in µg/mL.

Would you please look over these solved cases?
CC(=O)N[C@@H]1[C@H](O[C@H]2[C@@H](O)[C@H](NC(C)=O)[C@H](O[C@@H]3[C@@H](OP(=O)(O)OC[C@@H](OCCC(C)CCCCC(C)(C)CCC(C)CCC(C)CCCC(C)C)C(=O)O)O[C@@H](C(N)=O)[C@@](C)(O)[C@@H]3OC(N)=O)O[C@H]2CO[C@@H]2O[C@@H](CO)[C@@H](O)[C@H](O)[C@@H]2O)O[C@@H](C)[C@@H](O[C@@H]2O[C@@H](C(N)=O)[C@H](O)[C@H](O)[C@@H]2O)[C@@H]1O (stereo partly specified) = 0.08
CCCCCCCCCCCCO[C@H](COP(=O)(O)OC1OC(C(N)=O)C(O)C(NC(=O)Nc2ccc(Cl)c(C(F)(F)F)c2)C1OC1OC(CO)C(O)C(O)C1NC(=O)c1cccc(C(F)(F)F)c1)C(=O)O (stereo partly specified) = 6.25
C=C(C/C=C(\C)CCC=C(C)C)CCC(C)(C)/C=C/CC/C(C)=C\CO[C@H](COP(=O)(O)O[C@H]1O[C@@H](C(N)=O)[C@@](C)(O)[C@H](OC(N)=O)[C@@H]1O[C@@H]1O[C@@H](CO[C@@H]2O[C@@H](CO)[C@@H](O)[C@H](O)[C@@H]2O)[C@@H](O[C@@H]2O[C@@H](C)[C@@H](O[C@@H]3O[C@@H](C(=O)NC4=C(O)CCC4=O)[C@H](O)[C@H](O)[C@@H]3O)[C@H](O)[C@@H]2NC(C)=O)[C@@H](O)[C@@H]1NC(C)=O)C(=O)O = 0.05
CC(=O)N[C@@H]1[C@H](O[C@H]2[C@@H](O)[C@H](NC(C)=O)[C@H](OC3[C@@H](OP(=O)(O)OC[C@@H](OCCC(C)CCCCC(C)(C)CCC(C)CCC(C)CCCC(C)C)C(=O)O)O[C@@H](C(N)=O)[C@@](C)(O)[C@@H]3OC(N)=O)O[C@H]2CO[C@@H]2O[C@@H](CO)[C@@H](O)[C@H](O)[C@@H]2O)O[C@@H](C)[C@@H](O[C@@H]2O[C@@H](C(=O)NC3=C(O)CCC3=O)[C@H](O)[C@H](O)[C@@H]2O)[C@@H]1O (stereo partly specified) = 0.16

Now take the following molecule into account.
Which value of MIC has been reported for CC(=O)NC1C(OC2C(CO)OC(OC3C(OP(=O)(O)OC[C@@H](OCCC(C)CCCCC(C)(C)CCC(C)CCC(C)CCCC(C)C)C(=O)O)OC(C(N)=O)C(C)(O)C3OC(N)=O)C(NC(C)=O)C2O)OC(C)C(O)C1O (stereo partly specified) in the records?
0.63

* * *

- System: Staphylococcus epidermidis
- ASSAY_NAME: Compound was evaluated for its antibacterial activity against […] ATCC 12228
- Assay type: functional
ASSAY_READOUT: MIC (µg/mL)
Give bare numbers, in µg/mL.

Would you please look over these solved cases?
CCCCCCCCCCCCO[C@H](COP(=O)(O)OC1OC(C(N)=O)C(O)C(NC(=O)Nc2ccc(Cl)c(C(F)(F)F)c2)C1OC1OC(CO)C(O)C(O)C1NC(=O)c1cccc(C(F)(F)F)c1)C(=O)O (some centres undefined) = 6.25
C=C(C/C=C(\C)CCC=C(C)C)CCC(C)(C)/C=C/CC/C(C)=C\CO[C@H](COP(=O)(O)O[C@H]1O[C@@H](C(N)=O)[C@@](C)(O)[C@H](OC(N)=O)[C@@H]1O[C@@H]1O[C@@H](CO[C@@H]2O[C@@H](CO)[C@@H](O)[C@H](O)[C@@H]2O)[C@@H](O[C@@H]2O[C@@H](C)[C@@H](O[C@@H]3O[C@@H](C(=O)NC4=C(O)CCC4=O)[C@H](O)[C@H](O)[C@@H]3O)[C@H](O)[C@@H]2NC(C)=O)[C@@H](O)[C@@H]1NC(C)=O)C(=O)O [MOENOMYCIN] = 0.025
CC(=O)NC1C(OC2C(CO)OC(OC3C(OP(=O)(O)OC[C@@H](OCCC(C)CCCCC(C)(C)CCC(C)CCC(C)CCCC(C)C)C(=O)O)OC(C(N)=O)C(C)(O)C3OC(N)=O)C(NC(C)=O)C2O)OC(C)C(O)C1O (some centres undefined) = 0.53

Which value of MIC has been reported for CC(=O)N[C@@H]1[C@H](O[C@H]2[C@@H](O)[C@H](NC(C)=O)[C@H](O[C@@H]3[C@@H](OP(=O)(O)OC[C@@H](OCCC(C)CCCCC(C)(C)CCC(C)CCC(C)CCCC(C)C)C(=O)O)O[C@@H](C(N)=O)[C@@](C)(O)[C@@H]3OC(N)=O)O[C@H]2CO[C@@H]2O[C@@H](CO)[C@@H](O)[C@H](O)[C@@H]2O)O[C@@H](C)[C@@H](O[C@@H]2O[C@@H](C(N)=O)[C@H](O)[C@H](O)[C@@H]2O)[C@@H]1O (some centres undefined) in the records?
0.16

* * *

- System: Escherichia coli
- ASSAY_NAME: Compound was evaluated for its antibacterial activity against Escherichia coli BAS849
- Type: functional
Task for the reader: assign each of the following compounds its reported MIC.
Answers are plain numbers, in µg/mL.

C=C(C/C=C(\C)CCC=C(C)C)CCC(C)(C)/C=C/CC/C(C)=C\CO[C@H](COP(=O)(O)O[C@H]1O[C@@H](C(N)=O)[C@@](C)(O)[C@H](OC(N)=O)[C@@H]1O[C@@H]1O[C@@H](CO[C@@H]2O[C@@H](CO)[C@@H](O)[C@H](O)[C@@H]2O)[C@@H](O[C@@H]2O[C@@H](C)[C@@H](O[C@@H]3O[C@@H](C(=O)NC4=C(O)CCC4=O)[C@H](O)[C@H](O)[C@@H]3O)[C@H](O)[C@@H]2NC(C)=O)[C@@H](O)[C@@H]1NC(C)=O)C(=O)O = 0.025

Take each entry in turn and give its MIC.
1. CC(=O)N[C@@H]1[C@H](O[C@H]2[C@@H](O)[C@H](NC(C)=O)[C@H](O[C@@H]3[C@@H](OP(=O)(O)OC[C@@H](OCCC(C)CCCCC(C)(C)CCC(C)CCC(C)CCCC(C)C)C(=O)O)O[C@@H](C(N)=O)[C@@](C)(O)[C@@H]3OC(N)=O)O[C@H]2CO[C@@H]2O[C@@H](CO)[C@@H](O)[C@H](O)[C@@H]2O)O[C@@H](C)[C@@H](O[C@@H]2O[C@@H](C(N)=O)[C@H](O)[C@H](O)[C@@H]2O)[C@@H]1O (some centres undefined)
2. CC(=O)NC1C(OC2C(CO)OC(OC3C(OP(=O)(O)OC[C@@H](OCCC(C)CCCCC(C)(C)CCC(C)CCC(C)CCCC(C)C)C(=O)O)OC(C(N)=O)C(C)(O)C3OC(N)=O)C(NC(C)=O)C2O)OC(C)C(O)C1O (some centres undefined)

1. 0.08
2. 0.31
